# Test settings: 363.15 K; 25000 kPa; Liquid; Vibrating tube method
Assay readout: mass density (kg/m3)

[
  {
    "Compound": "CCCCCCCCC(=O)OC [methyl nonanoate]",
    "Reported result": 837.27
  },
  {
    "Compound": "CCCCCCCC(=O)OC [methyl octanoate]",
    "Reported result": 838.84
  },
  {
    "Compound": "CCCCC(=O)OC [methyl pentanoate]",
    "Reported result": 845.61
  },
  {
    "Compound": "CCCCCCC(=O)OC [methyl heptanoate]",
    "Reported result": 840.56
  },
  {
    "Compound": "CCCCCC(=O)OC [methyl hexanoate]",
    "Reported result": 842.64
  },
  {
    "Compound": "CCCC(=O)OC [methyl butanoate]",
    "Reported result": 849.26
  }
]

----------
// reported mass density for each item listed
# Test settings: 353.15 K; 3000 kPa; Liquid; Vibrating tube method

[
  {
    "Molecule": "CCCCCCC(=O)OC [methyl heptanoate]",
    "mass density / kg/m3": 827.61
  },
  {
    "Molecule": "CCCC(=O)OC [methyl butanoate]",
    "mass density / kg/m3": 833.71
  },
  {
    "Molecule": "CCCCC(=O)OC [methyl pentanoate]",
    "mass density / kg/m3": 831.13
  },
  {
    "Molecule": "CCCCCCCCC(=O)OC [methyl nonanoate]",
    "mass density / kg/m3": 825.7
  },
  {
    "Molecule": "CCCCCCCC(=O)OC [methyl octanoate]",
    "mass density / kg/m3": 826.59
  },
  {
    "Molecule": "CCCCCC(=O)OC [methyl hexanoate]",
    "mass density / kg/m3": 828.96
  }
]

----------
# mass density annotations
# Test settings: 303.15 K; 35000 kPa; Liquid; Vibrating tube method

[
  {
    "Molecule": "CCCC(=O)OC [methyl butanoate]",
    "Unit label": "kg/m3",
    "mass density": 915.86
  },
  {
    "Molecule": "CCCCCC(=O)OC [methyl hexanoate]",
    "Unit label": "kg/m3",
    "mass density": 900.52
  },
  {
    "Molecule": "CCCCC(=O)OC [methyl pentanoate]",
    "Unit label": "kg/m3",
    "mass density": 906.97
  },
  {
    "Molecule": "CCCCCCCCC(=O)OC [methyl nonanoate]",
    "Unit label": "kg/m3",
    "mass density": 888.79
  },
  {
    "Molecule": "CCCCCCCC(=O)OC [methyl octanoate]",
    "Unit label": "kg/m3",
    "mass density": 891.59
  },
  {
    "Molecule": "CCCCCCC(=O)OC [methyl heptanoate]",
    "Unit label": "kg/m3",
    "mass density": 895.46
  }
]

----------
# Test settings: 343.15 K; 1000 kPa; Liquid; Vibrating tube method

[
  {
    "Compound": "CCCCCCCC(=O)OC [methyl octanoate]",
    "mass density, kg/m3": 833.32
  },
  {
    "Compound": "CCCCC(=O)OC [methyl pentanoate]",
    "mass density, kg/m3": 839.04
  },
  {
    "Compound": "CCCC(=O)OC [methyl butanoate]",
    "mass density, kg/m3": 842.4
  },
  {
    "Compound": "CCCCCCCCC(=O)OC [methyl nonanoate]",
    "mass density, kg/m3": 832.28
  },
  {
    "Compound": "CCCCCC(=O)OC [methyl hexanoate]",
    "mass density, kg/m3": 836.39
  },
  {
    "Compound": "CCCCCCC(=O)OC [methyl heptanoate]",
    "mass density, kg/m3": 834.64
  }
]

----------
Measured mass density values are reported for all entries that follow.
# Test settings: 323.15 K; 60000 kPa; Liquid; Vibrating tube method
Assay readout: mass density (kg/m3)

[
  {
    "Molecule": "CCCCCCCC(=O)OC [methyl octanoate]",
    "Assay readout": "mass density",
    "Reported result": 891.84
  },
  {
    "Molecule": "CCCCCCC(=O)OC [methyl heptanoate]",
    "Assay readout": "mass density",
    "Reported result": 895.63
  },
  {
    "Molecule": "CCCC(=O)OC [methyl butanoate]",
    "Assay readout": "mass density",
    "Reported result": 915.65
  },
  {
    "Molecule": "CCCCCCCCC(=O)OC [methyl nonanoate]",
    "Assay readout": "mass density",
    "Reported result": 888.79
  },
  {
    "Molecule": "CCCCCC(=O)OC [methyl hexanoate]",
    "Assay readout": "mass density",
    "Reported result": 900.65
  },
  {
    "Molecule": "CCCCC(=O)OC [methyl pentanoate]",
    "Assay readout": "mass density",
    "Reported result": 906.77
  }
]

----------
Catalogue of mass density readings, one per entry.
# Test settings: 323.15 K; 50000 kPa; Liquid; Vibrating tube method

[
  {
    "Compound": "CCCCCC(=O)OC [methyl hexanoate]",
    "mass density [kg/m3]": 894.33
  },
  {
    "Compound": "CCCCC(=O)OC [methyl pentanoate]",
    "mass density [kg/m3]": 900.12
  },
  {
    "Compound": "CCCCCCC(=O)OC [methyl heptanoate]",
    "mass density [kg/m3]": 889.53
  }
]
